Target: T1, P2-AA-12HAA-I
T1 chain: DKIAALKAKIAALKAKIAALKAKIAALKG
Assay: two-hybrid library CCmax;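 note: natural log of median RNA to DNA barcode read ratio; higher means stronger binding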
Details: mean of both orientations
measurement.kind: interaction score
Write the number on its own, no unit after it.

1) DEIAALEAEHAALEAEHAALEAEIAALEG [P1-AA-12HAA-H]: 1.75
2) DEIAALEAEKAALEAEKAALEAEIAALEG [P1-AA-12HAA-K]: 1.67
3) DEIAALEAEIAALEAEIAALEAEIAALEG [P1-AA-12HAA-I]: 2.05

Attention now turns to another entry.
Asked: Which interaction score value belongs to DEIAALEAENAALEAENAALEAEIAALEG [P1-AA] ?
Given back: 1.38
